Values compiled from patent US20160207996A1.

# MEASUREMENT TARGET: T1, GST-tagged hNav1.7-loopA3 (human, UniProt Q15858 269-339)
# T1 construct: monomeric GST-tagged peptide; also called hNav1.7-loopA3-GST; Nav1.7-loopA3-GST; not shown: GST tag
# T1 sequence (Q15858 269-339 limits assumed): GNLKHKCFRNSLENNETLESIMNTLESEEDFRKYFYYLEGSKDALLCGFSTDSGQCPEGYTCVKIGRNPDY
# PROTOCOL DETAILS: Biacore SPR, antigen on CM5 chip, mAb in flow

BINDER	MEASUREMENT UNIT	koff
4F6 (antibody, human IgG1, V domains shown) VH: QLQLVESGGGLVQPGGSLRLSCAASGFTFDDYAMSWVRQAPGKGLEWVSAISWNGGSTYYAESMKGRFTISRDNAKNTLYLQMNSLKSKDTAVYYCARRRYGLGSEYDYWGQGTQVTVSS VL: HSAVTQPSAVSVSLGQTARITCQGTNLRSSYVHWYQQMPGQAPVLVIYRDSERPSGIPERFSGSSSGGTATLAISGAQAEDEADYYCQSAHRSESAVFGGGTHLTVLG	s⁻¹	0.00254
6H8 (antibody, human IgG1, V domains shown) VH: EVQLVESGGGLVQPGGTLRLSCAASGFTFSNYWMHWVRQAPGKGLEWVSVIDRGGGGTRYADSVKGRFTISRDNAKNTLYLRMNSLKPEDTALYYCTRDRNGEYDYWGRGTQVTVSS VL: DIQMTQSPSSVTASAGEKVTINCKSSQSVLYSSNQKNYLAWYQQRLGQSPRLLIYWASTRESGVPDRFSGSGSTTDFTLTINNFQPEDAAVYYCQQGYSAPLTFGQGTKVELK	s⁻¹	6.9e-07
3F11 (antibody, human IgG1, V domains shown) VH: QVQLVESGGGLVQPGGSLRLSCAASGFTFSSYWMYWVRQAPGKGLEWVSAINTGGGSTYYADSVKGRFTISRDNAKNTLYLQMNSLKPEDTALYYCARGPGYSGSYIEGWAYWGQGTQVTVSS VL: DIVMTQSPTSVTASVGEKVTINCKSSQSVVSGSNQKSYLNWYQQRPGQSPRLLIYHASTQESGIPDRFSGSGSTTDFTLTISSVQPEDAAVYYCQQAYNNPYSFGSGTRLEIK	s⁻¹	1.77e-05
